Protein target, amino acids: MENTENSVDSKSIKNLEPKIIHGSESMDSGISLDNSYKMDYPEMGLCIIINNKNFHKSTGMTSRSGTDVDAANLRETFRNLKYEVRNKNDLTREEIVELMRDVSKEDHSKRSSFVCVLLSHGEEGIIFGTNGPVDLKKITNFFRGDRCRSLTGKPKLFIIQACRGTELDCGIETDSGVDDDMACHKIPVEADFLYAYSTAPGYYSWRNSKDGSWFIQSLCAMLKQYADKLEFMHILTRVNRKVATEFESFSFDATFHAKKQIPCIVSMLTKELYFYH
Assay endpoint: pIC50
Scale: pIC50 equals -log10([C]), with [C] in mol/L.

Query: State the recorded pIC50 for this entry: CC(C)(C)c1cc2nc3n(c(O)c-2n1)[C@H](C(=O)N[C@H]1CC(=O)OC1O)CC3 (stereo partly specified)
Response: 5.64
